- testedSystem: α3β4 nAChR (Rattus norvegicus (Rat), UniProt P04757+P12392)
- Sequence (P04757 26-499): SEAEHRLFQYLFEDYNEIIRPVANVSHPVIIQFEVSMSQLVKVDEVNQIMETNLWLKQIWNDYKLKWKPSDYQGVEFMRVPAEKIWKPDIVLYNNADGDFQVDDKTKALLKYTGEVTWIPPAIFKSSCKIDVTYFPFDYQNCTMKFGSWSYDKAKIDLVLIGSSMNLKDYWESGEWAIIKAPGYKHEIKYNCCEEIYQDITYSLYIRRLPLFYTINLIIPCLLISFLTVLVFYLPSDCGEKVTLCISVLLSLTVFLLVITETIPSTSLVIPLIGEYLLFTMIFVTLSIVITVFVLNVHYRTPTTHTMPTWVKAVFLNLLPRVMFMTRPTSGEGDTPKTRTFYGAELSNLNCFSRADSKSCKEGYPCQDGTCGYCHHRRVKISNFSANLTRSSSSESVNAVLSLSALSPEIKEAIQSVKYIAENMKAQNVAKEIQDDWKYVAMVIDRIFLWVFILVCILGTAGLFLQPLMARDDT
- Sequence (P12392 21-495): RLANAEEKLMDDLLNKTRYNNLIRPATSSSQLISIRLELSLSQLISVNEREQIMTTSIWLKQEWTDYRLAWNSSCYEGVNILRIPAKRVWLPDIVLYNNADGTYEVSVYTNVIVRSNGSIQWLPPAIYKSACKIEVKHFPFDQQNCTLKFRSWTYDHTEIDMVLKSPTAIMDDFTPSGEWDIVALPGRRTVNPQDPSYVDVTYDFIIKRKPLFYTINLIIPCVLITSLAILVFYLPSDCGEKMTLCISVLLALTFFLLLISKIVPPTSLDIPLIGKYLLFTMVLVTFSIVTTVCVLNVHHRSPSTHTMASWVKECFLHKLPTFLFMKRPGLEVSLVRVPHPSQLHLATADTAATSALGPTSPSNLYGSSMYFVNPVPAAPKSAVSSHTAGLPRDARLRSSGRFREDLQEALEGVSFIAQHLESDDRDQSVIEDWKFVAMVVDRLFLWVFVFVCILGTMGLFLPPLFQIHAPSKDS
- experiment: [3H]-epibatidine competition binding, α3β4
- experimentalContext: Table 1; mean of 3 to 5 measurements
readoutLabel: pKi
Give only the number. pKi is defined as minus log10 of concentration in molar units.

Reference set (3 entries):
{"compound": "Cc1ncc(C#CC2CC2)cc1OC[C@@H]1CCN1 [(S)-27]", "testValue": 3.82}
{"compound": "Cc1ncc(C#CCCCCF)cc1OC[C@@H]1CCN1 [(S)-22]", "testValue": 3.82}
{"compound": "Cc1ncc(C#CCCCCCl)cc1OC[C@@H]1CCN1 [(S)-21]", "testValue": 4.04}

Ask: Query for α3β4 nAChR (Rattus norvegicus (Rat), UniProt P04757+P12392): what pKi does the record show for CCCCC#Cc1cnc(C)c(OC[C@H]2CCN2)c1 [(R)-15] ?
Reply: 3.70

Ask: Query for α3β4 nAChR (Rattus norvegicus (Rat), UniProt P04757+P12392): what pKi does the record show for CCCCC#Cc1cnc(C)c(OC[C@@H]2CCN2)c1 [(S)-15] ?
Reply: 3.64

###

- testedSystem: α4β2 nAChR (Rattus norvegicus (Rat), UniProt P09483+P12390)
- Sequence (P09483 31-630 limits assumed): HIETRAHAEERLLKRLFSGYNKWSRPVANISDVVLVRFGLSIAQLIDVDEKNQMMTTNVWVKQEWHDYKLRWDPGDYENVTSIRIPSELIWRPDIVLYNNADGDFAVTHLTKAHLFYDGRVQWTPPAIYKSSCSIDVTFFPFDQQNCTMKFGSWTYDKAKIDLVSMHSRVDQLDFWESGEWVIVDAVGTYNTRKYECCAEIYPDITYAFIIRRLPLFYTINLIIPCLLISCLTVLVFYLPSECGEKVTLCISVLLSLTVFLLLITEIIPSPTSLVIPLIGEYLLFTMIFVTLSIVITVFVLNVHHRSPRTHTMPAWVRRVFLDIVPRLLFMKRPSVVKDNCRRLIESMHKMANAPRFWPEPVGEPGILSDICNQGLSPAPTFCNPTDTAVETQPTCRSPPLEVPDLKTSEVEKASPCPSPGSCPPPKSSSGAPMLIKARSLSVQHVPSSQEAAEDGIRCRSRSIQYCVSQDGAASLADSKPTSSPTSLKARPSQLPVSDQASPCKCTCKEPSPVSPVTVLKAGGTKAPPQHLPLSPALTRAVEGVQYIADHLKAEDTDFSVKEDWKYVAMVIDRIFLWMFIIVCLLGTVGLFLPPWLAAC
- Sequence (P12390 25-500 limits assumed): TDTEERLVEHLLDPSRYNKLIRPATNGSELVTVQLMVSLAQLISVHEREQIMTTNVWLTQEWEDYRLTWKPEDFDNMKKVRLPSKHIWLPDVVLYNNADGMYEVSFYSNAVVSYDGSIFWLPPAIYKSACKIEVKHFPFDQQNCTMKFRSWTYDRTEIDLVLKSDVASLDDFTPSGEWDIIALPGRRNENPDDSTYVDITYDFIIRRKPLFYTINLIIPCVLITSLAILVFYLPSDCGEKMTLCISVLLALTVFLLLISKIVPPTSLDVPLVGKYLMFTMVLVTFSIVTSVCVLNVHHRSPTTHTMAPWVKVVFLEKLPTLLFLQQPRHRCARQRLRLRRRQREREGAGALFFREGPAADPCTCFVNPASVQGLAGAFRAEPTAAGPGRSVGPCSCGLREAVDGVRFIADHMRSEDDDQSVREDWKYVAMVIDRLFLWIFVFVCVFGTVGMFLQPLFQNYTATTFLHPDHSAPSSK
- experiment: biochemical
- Type: binding
- experimentalContext: selectivity for α4β2 over α7
Below is a list of entries, each paired with its recorded Ki Ratio α7/α4β2 value.

{"compound": "CCCCC#Cc1cnc(C)c(OC[C@@H]2CCN2)c1 [(S)-15]", "testValue": "7,800"}
{"compound": "CCCCC#Cc1cnc(C)c(OC[C@H]2CCCN2)c1 [(R)-16]", "testValue": 11}
{"compound": "Cc1ncc(C#CC2CC2)cc1OC[C@@H]1CCN1 [(S)-27]", "testValue": "16,000"}

Ask: Given the entry OCCCCC#Cc1cncc(OC[C@@H]2CCN2)c1 [Sazetidine-A, reference compound] , report its measured Ki Ratio α7/α4β2.
Reply: 11,000

Ask: Given the entry CCCCC#Cc1cnc(C)c(OC[C@H]2CCN2)c1 [(R)-15] , report its measured Ki Ratio α7/α4β2.
Reply: 220

Ask: Given the entry Cc1ncc(C#CCCCCO)cc1OC[C@@H]1CCN1 [(S)-17] , report its measured Ki Ratio α7/α4β2.
Reply: 40,000

Ask: Given the entry Cc1ncc(C#CCCCCCl)cc1OC[C@@H]1CCN1 [(S)-21] , report its measured Ki Ratio α7/α4β2.
Reply: 13,000

###

- testedSystem: human α4β2 nAChRs (Homo sapiens (Human), UniProt P17787+P43681)
- Sequence (P43681 29-627): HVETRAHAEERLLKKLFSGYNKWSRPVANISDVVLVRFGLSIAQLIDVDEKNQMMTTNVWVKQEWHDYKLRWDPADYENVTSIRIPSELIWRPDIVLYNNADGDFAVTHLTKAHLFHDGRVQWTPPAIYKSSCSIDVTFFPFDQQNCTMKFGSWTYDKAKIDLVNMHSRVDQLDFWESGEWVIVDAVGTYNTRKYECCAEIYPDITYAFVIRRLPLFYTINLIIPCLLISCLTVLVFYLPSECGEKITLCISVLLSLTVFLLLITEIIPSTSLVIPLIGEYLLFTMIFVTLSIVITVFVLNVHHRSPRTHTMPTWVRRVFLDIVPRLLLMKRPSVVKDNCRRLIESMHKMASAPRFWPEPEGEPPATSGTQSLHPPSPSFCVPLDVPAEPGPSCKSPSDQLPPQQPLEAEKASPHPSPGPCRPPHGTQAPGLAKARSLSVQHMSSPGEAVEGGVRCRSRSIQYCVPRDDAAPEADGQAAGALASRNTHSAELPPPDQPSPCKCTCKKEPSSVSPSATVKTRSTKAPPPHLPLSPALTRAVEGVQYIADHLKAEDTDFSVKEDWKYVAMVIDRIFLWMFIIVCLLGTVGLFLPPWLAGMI
- Sequence (P17787 26-502): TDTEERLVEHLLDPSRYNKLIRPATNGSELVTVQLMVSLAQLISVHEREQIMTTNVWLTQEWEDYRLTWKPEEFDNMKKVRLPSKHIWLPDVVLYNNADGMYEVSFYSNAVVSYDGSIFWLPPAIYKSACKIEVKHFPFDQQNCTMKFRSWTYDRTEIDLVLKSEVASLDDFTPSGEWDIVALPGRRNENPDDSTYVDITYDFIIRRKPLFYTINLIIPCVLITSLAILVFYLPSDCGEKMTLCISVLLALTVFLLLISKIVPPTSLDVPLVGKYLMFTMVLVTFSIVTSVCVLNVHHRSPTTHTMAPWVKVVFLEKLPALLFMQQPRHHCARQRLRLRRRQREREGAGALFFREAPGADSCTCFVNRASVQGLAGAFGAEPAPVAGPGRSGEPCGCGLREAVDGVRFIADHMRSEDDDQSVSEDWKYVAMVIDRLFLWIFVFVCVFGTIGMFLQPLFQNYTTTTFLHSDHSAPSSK
- experiment: 86Rb+ efflux assay (activation and desensitization), α4β2
- experimentalContext: agonist activity; ND = no significant stimulated efflux detected
readoutLabel: pEC50
Give only the number. pEC50 is defined as minus log10 of concentration in molar units.

{"compound": "Cc1ncc(C#CCCCCO)cc1OC[C@@H]1CCN1 [(S)-17]", "testedSystem": "human α4β2 nAChRs (Homo sapiens (Human), UniProt P17787+P43681)", "testValue": 7.20}
{"compound": "Cc1ncc(C#CC2CC2)cc1OC[C@@H]1CCN1 [(S)-27]", "testedSystem": "human α4β2 nAChRs (Homo sapiens (Human), UniProt P17787+P43681)", "testValue": 6.80}
{"compound": "OCCCCC#Cc1cncc(OC[C@@H]2CCN2)c1 [Sazetidine-A, reference compound]", "testedSystem": "human α4β2 nAChRs (Homo sapiens (Human), UniProt P17787+P43681)", "testValue": 7.62}

Ask: Given the entry CCCCC#Cc1cnc(C)c(OC[C@@H]2CCN2)c1 [(S)-15] , report its measured pEC50.
Reply: 6.51

###

- testedSystem: α4β2 nAChR (Rattus norvegicus (Rat), UniProt P09483+P12390)
- experiment: biochemical
- Type: binding
- experimentalContext: Table 1; mean of 3 to 5 measurements; read-out: Ki α4β2
readoutLabel: pKi
Give only the number. pKi is defined as minus log10 of concentration in molar units.

{"molecule": "Cc1ncc(C#CCCCCO)cc1OC[C@@H]1CCN1 [(S)-17]", "pKi": 8.37}

Ask: Given the entry CCCCC#Cc1cnc(C)c(OC[C@H]2CCN2)c1 [(R)-15] , report its measured pKi.
Reply: 6.13

Ask: Given the entry Cc1ncc(C#CCCCCCl)cc1OC[C@@H]1CCN1 [(S)-21] , report its measured pKi.
Reply: 8.28

Ask: Given the entry Cc1ncc(C#CC2CC2)cc1OC[C@@H]1CCN1 [(S)-27] , report its measured pKi.
Reply: 8.02

###

Below is a list of entries, each paired with its recorded Ki value.
- testedSystem: α7 nAChR (Rattus norvegicus (Rat), UniProt Q05941)
- Sequence (Q05941 23-502 limits assumed): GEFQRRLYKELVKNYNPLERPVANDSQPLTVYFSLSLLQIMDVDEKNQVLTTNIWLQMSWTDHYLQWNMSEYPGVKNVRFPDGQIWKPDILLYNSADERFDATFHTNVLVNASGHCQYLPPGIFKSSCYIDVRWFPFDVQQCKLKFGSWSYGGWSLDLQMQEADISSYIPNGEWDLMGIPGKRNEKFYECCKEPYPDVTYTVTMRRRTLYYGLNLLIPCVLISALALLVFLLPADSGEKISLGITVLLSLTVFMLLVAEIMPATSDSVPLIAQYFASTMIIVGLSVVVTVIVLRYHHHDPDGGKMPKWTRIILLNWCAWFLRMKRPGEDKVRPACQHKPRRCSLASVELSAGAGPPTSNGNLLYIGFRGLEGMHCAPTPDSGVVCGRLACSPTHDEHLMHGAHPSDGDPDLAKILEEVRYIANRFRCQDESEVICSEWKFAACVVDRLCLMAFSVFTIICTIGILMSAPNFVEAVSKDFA
- Format: binding
- experimentalContext: Table 3 (Example 4)
Kindly provide the numeric value in µM only, without the unit symbol.

Reference set (6 entries):
{"compound": "Cc1ncc(C#CC2CC2)cc1OC[C@@H]1CCN1 [(S)-27]", "Ki [µM]": 150}
{"compound": "CCCCC#Cc1cnc(C)c(OC[C@@H]2CCCN2)c1 [(S)-16]", "Ki [µM]": 81}
{"compound": "Cc1ncc(C#CCCCCO)cc1OC[C@@H]1CCN1 [(S)-17]", "Ki [µM]": 170}
{"compound": "Cc1ncc(C#CCCCCF)cc1OC[C@@H]1CCN1 [(S)-22]", "Ki [µM]": 150}
{"compound": "OCCCCC#Cc1cncc(OC[C@@H]2CCN2)c1 [Sazetidine-A, reference compound]", "Ki [µM]": 1.6}
{"compound": "CCCCC#Cc1cnc(C)c(OC[C@H]2CCN2)c1 [(R)-15]", "Ki [µM]": 120}

--- query ---
Ask: Query for α7 nAChR (Rattus norvegicus (Rat), UniProt Q05941): what Ki does the record show for Cc1ncc(C#CCCCCCl)cc1OC[C@@H]1CCN1 [(S)-21] ?
Reply: 67.2

###

- testedSystem: rat α3β4 nAChRs (Rattus norvegicus (Rat), UniProt P04757+P12392)
- experiment: 86Rb+ efflux assay (activation and desensitization), α3β4
- experimentalContext: agonist activity; ND = no significant stimulated efflux detected
readoutLabel: EC50 (µM)
Kindly provide the numeric value in µM only, without the unit symbol.

Ask: Given the entry OCCCCC#Cc1cncc(OC[C@@H]2CCN2)c1 [Sazetidine-A, reference compound] , report its measured EC50.
Reply: 24

###

- testedSystem: human α4β2 nAChRs (Homo sapiens (Human), UniProt P17787+P43681)
- experiment: 86Rb+ efflux assay (activation and desensitization), α4β2
- Type: cell-based
- experimentalContext: desensitization, 10 min pre-treatment; Table 3 (Example 4); read-out: IC50(10′) α4β2
readoutLabel: pIC50
Give only the number. pIC50 is defined as minus log10 of concentration in molar units.

Reference set (5 entries):
{"compound": "OCCCCC#Cc1cncc(OC[C@@H]2CCN2)c1 [Sazetidine-A, reference compound]", "testValue": 8.12}
{"compound": "Cc1ncc(C#CCCCCCl)cc1OC[C@@H]1CCN1 [(S)-21]", "testValue": 6.57}
{"compound": "Cc1ncc(C#CC2CC2)cc1OC[C@@H]1CCN1 [(S)-27]", "testValue": 7.96}
{"compound": "Cc1ncc(C#CCCCCO)cc1OC[C@@H]1CCN1 [(S)-17]", "testValue": 7.38}
{"compound": "CCCCC#Cc1cnc(C)c(OC[C@@H]2CCN2)c1 [(S)-15]", "testValue": 7.74}

--- query ---
Ask: Given the entry Cc1ncc(C#CCCCCF)cc1OC[C@@H]1CCN1 [(S)-22] , report its measured pIC50.
Reply: 6.85

###

- testedSystem: α7 nAChR (Rattus norvegicus (Rat))
- Format: binding
- experimentalContext: Table 1; mean of 3 to 5 measurements
readoutLabel: Ki (µM)
Kindly provide the numeric value in µM only, without the unit symbol.

Reference set (4 entries):
{"molecule": "Cc1ncc(C#CCCCCCl)cc1OC[C@@H]1CCN1 [(S)-21]", "testValue": 67}
{"molecule": "CCCCC#Cc1cnc(C)c(OC[C@@H]2CCN2)c1 [(S)-15]", "testValue": 93}
{"molecule": "CCCCC#Cc1cnc(C)c(OC[C@H]2CCCN2)c1 [(R)-16]", "testValue": 110}
{"molecule": "Cc1ncc(C#CCCCCF)cc1OC[C@@H]1CCN1 [(S)-22]", "testValue": 150}

--- query ---
Ask: Given the entry CCCCC#Cc1cnc(C)c(OC[C@H]2CCN2)c1 [(R)-15] , report its measured Ki.
Reply: 160

###

- testedSystem: α3β4 nAChR (Rattus norvegicus (Rat), UniProt P04757+P12392)
- experiment: [3H]-epibatidine competition binding, α3β4
- experimentalContext: Table 3 (Example 4)
- Method: In Vitro Binding Affinities for nAChR Subtypes. […] To determine selectivities of these compounds in binding assays among the three predominant nAChR subtypes, α3β4, α4β2 and α7, the ratios of Ki values (α3β4/α4β2 and α7/α4β2) were determined. […] Briefly, cultured cells at >80% confluence were removed from their flasks (80 cm^2) with a disposable cell scraper and placed in 10 mL of 50 mM Tris.HCl buffer (pH 7.4, 4° C.). […] The filter-retained radioactivity was measured by liquid scintillation counting. […]
Response field label takes met when Ki is strictly below 90 µM and not met in all other cases.

Ask: For this molecule, is Ki lower than 90 µM? Cc1ncc(C#CC2CC2)cc1OC[C@@H]1CCN1 [(S)-27]
Reply: not met

Ask: For this molecule, is Ki lower than 90 µM? Cc1ncc(C#CCCCCF)cc1OC[C@@H]1CCN1 [(S)-22]
Reply: not met

Ask: For this molecule, is Ki lower than 90 µM? Cc1ncc(C#CCCCCO)cc1OC[C@@H]1CCN1 [(S)-17]
Reply: not met

Ask: For this molecule, is Ki lower than 90 µM? CCCCC#Cc1cnc(C)c(OC[C@@H]2CCCN2)c1 [(S)-16]
Reply: not met

Ask: For this molecule, is Ki lower than 90 µM? OCCCCC#Cc1cncc(OC[C@@H]2CCN2)c1 [Sazetidine-A, reference compound]
Reply: met

Ask: For this molecule, is Ki lower than 90 µM? CCCCC#Cc1cnc(C)c(OC[C@H]2CCCN2)c1 [(R)-16]
Reply: met

Ask: For this molecule, is Ki lower than 90 µM? Cc1ncc(C#CCCCCCl)cc1OC[C@@H]1CCN1 [(S)-21]
Reply: met
